Task for the reader: assign each of the following proteins its reported Monomer 20 kDa, %.
target: the molecule itself; experiment: cross-linking; apo-proteins: 0.02% glutaric aldehyde, 16 h, 20 °C, protein 1 mg/mL, 20 mM Tricine-KOH pH 7.4, 50 mM KCl, 1 mM DTT, 1 mM EDTA; SDS-PAGE, Coomassie, densitometry; self-association
Return type: number; implicit unit %.

Quickly give me recorded Monomer 20 kDa, % for human recoverin mutant F172A (natural protein, UniProt P35243 1-200, looked up, myristoylated (fraction of non-myristoylated forms did not exceed 16%), recoverin, human, UniProt P35243, C-terminal 'black' cluster mutant; Parent construct as m1; source: E. coli, expressed and purified similarly to the rWT protein (phenyl-Sepharose, Toyopearl SuperQ-650M)) MGNSKSGALSKEILEELQLNTKFSEEELCSWYQSFLKDCPTGRITQQQFQSIYAKFFPDTDPKAYAQHVFRSFDSNLDGTLDFKEYVIALHMTTAGKTNQKLEWAFSLYDVDGNGTISKNEVLEIVMAIFKMITPEDVKLLPDDENTPEKRAEKIWKYFGKNDDDKLTEKEAIEGTLANKEILRLIQFEPQKVKEKMKNA 66.4

For human recoverin mutant F83A (natural protein, UniProt P35243 1-200, looked up, myristoylated (fraction of non-myristoylated forms did not exceed 16%), recoverin, human, UniProt P35243, N-terminal 'black' cluster mutant; Parent construct as m1; source: E. coli, expressed and purified similarly to the rWT protein (phenyl-Sepharose, Toyopearl SuperQ-650M)) MGNSKSGALSKEILEELQLNTKFSEEELCSWYQSFLKDCPTGRITQQQFQSIYAKFFPDTDPKAYAQHVFRSFDSNLDGTLDAKEYVIALHMTTAGKTNQKLEWAFSLYDVDGNGTISKNEVLEIVMAIFKMITPEDVKLLPDDENTPEKRAEKIWKYFGKNDDDKLTEKEFIEGTLANKEILRLIQFEPQKVKEKMKNA , write its Monomer 20 kDa, %. 64.4

Give the reported Monomer 20 kDa, % for this protein. human recoverin mutant F49A (natural protein, UniProt P35243 1-200, looked up, myristoylated (fraction of non-myristoylated forms did not exceed 16%), recoverin, human, UniProt P35243, N-terminal 'gray' cluster mutant; Parent construct as m1; source: E. coli, expressed and purified similarly to the rWT protein (phenyl-Sepharose, Toyopearl SuperQ-650M)) MGNSKSGALSKEILEELQLNTKFSEEELCSWYQSFLKDCPTGRITQQQAQSIYAKFFPDTDPKAYAQHVFRSFDSNLDGTLDFKEYVIALHMTTAGKTNQKLEWAFSLYDVDGNGTISKNEVLEIVMAIFKMITPEDVKLLPDDENTPEKRAEKIWKYFGKNDDDKLTEKEFIEGTLANKEILRLIQFEPQKVKEKMKNA 63.3
